Origin of values: PubChem BioAssay AID1159580

assay: chemical genetic growth profiling, strain panel (AID 1159580);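 also: tested at 20 µM; growth read once vehicle control cultures reached saturation at 30 °C; lower values mean less growth of the strain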; details: S. cerevisiae deletion strains, growth OD, locus YOR184W, strain ser1
The campaign covered roughly 5,500 compounds. About 2,000 (36%) were called active. Roughly 18% stayed inconclusive and do not appear here. Rule as the data show it: active = normalized growth mostly below about 0.91 (no sharp cut-off); inconclusive = no clear call, values can overlap the other calls; inactive = mostly above about 0.92. The list shows a part of the results.
Tick one outcome: active, inactive

Example entries begin here.
COMPOUND	GROUP LABEL
COc1ccc(-c2coc3c(O)c(OC)ccc3c2=O)cc1	active
COc1ccc(-c2coc3c(OC)c(OC)cc(O)c3c2=O)cc1	inactive
O=C1CC(c2ccccc2)Oc2ccccc21 (stereo unspecified)	inactive
Oc1ccc(O)cc1	inactive
CC(=C(CCOP(=O)(O)O)SC(=O)c1ccccc1)N(C=O)Cc1cnc(C)nc1N	inactive

Next compound, please.
What call does the record list for `NC(=O)N1c2ccccc2CC(=O)c2ccccc21` ?
inactive
